Here's what we have: pIC50 numbers for D(3) dopamine receptor (Rattus norvegicus, UniProt P19020).
A value of pIC50 is the negative decimal logarithm of a concentration given in moles per litre.

>>> df
                                   compound  measurement_name  value_observed
0  CCN1CCc2c(sc3ccccc23)C(c2ccc(Cl)c(Cl)c2)C1 (centres undefined)             pIC50            5.70

Reading of pIC50 for CCN1CCc2c(sc3ccccc23)C(c2ccccc2)C1 (centres undefined) with D(3) dopamine receptor (Rattus norvegicus, UniProt P19020): 6.22

----------
# assay.system: Mu-type opioid receptor (Rattus norvegicus, UniProt P33535)
# Sequence (P33535 whole entry): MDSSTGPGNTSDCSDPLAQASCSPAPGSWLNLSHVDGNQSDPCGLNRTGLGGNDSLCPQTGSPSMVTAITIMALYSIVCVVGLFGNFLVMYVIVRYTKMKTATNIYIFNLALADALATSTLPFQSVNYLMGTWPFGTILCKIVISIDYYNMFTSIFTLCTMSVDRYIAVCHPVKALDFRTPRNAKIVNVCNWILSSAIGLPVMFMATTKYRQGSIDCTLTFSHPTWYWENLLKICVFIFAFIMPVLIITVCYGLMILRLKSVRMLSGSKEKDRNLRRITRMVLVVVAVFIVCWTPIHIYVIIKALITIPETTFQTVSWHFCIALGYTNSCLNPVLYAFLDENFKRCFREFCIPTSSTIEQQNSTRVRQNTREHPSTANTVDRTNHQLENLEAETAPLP
Criterion: IC50 strictly less than 5 µM. Met: t. Not met: f.

                                   molecule  class
0  CCN1CCc2c(sc3ccccc23)C(c2cccc([N+](=O)[O-])c2)C1 (stereo not given)      t
1  CCN1CCc2c(sc3ccccc23)C(c2ccccc2)C1 (stereo not given)      t
2  CC[C@@H]1CC2C[C@@H]3c4[nH]c5ccc(O)cc5c4CCN(C2)C13      t

Query: Determine if CCN1CCc2c(sc3ccccc23)C(c2ccc(Cl)c(Cl)c2)C1 (stereo not given) shows IC50 strictly lower than 5 µM.
Response: f

// data source = ChEMBL document CHEMBL1131617
